# Test system: zebrafish embryos
# MEASUREMENT_CONDITIONS: in vivo
RECORDED_ENDPOINT: toxicity (survival of zebra fish embryos scored by heartbeat)

| COMPOUND | RESULT |
| --- | --- |
| CCOC(=O)CNC(=O)CSc1nc(-c2ccccc2)ns1 [Compound I-41, reference compound] | toxic |
| CCOC(=O)CNC(=O)CSc1nc(-c2cccc(C)c2)ns1 [Compound I-40, reference compound] | toxic |

---

# MEASUREMENT_CONDITIONS: human, microsomes, 0.5 h, pH 7.4
Here, each record is paired with measured Compound remaining (%) data.
RECORDED_ENDPOINT: Compound remaining (%)

| COMPOUND | RECORDED_ENDPOINT | UNITS_LABEL | QUANTITATIVE_READOUT |
| --- | --- | --- | --- |
| CCCNC(=O)CSc1nc(-c2ccc(Cl)cc2)ns1 [Compound I-36] | Compound remaining (%) | % | 62 |
| CCCNC(=O)CSc1nc(-c2ccccc2)ns1 [Compound I-1] | Compound remaining (%) | % | 64 |
| O=C(CSc1nc(-c2ccc(Cl)cc2)ns1)NCCC(F)(F)F [Compound I-37] | Compound remaining (%) | % | 55 |
| O=C(CSc1nc(-c2ccccc2)ns1)NCCC(F)(F)F [Compound I-35] | Compound remaining (%) | % | 65 |
| O=C(CSc1nc(-c2ccccc2)ns1)NC1CCCC1 [Compound I-5] | Compound remaining (%) | % | 75 |
| O=C(COc1nc(-c2ccccc2)ns1)NC1CCCC1 [Compound I-33] | Compound remaining (%) | % | 72 |
| CCCNC(=O)CSc1nc(-c2ccc(OC)cc2)ns1 [Compound I-3] | Compound remaining (%) | % | 11 |

---

Here, each record is paired with measured Half-life data.
# MEASUREMENT_CONDITIONS: human, microsomes, 15 μM, pH 7.4
RECORDED_ENDPOINT: Half-life (min)

| COMPOUND | RECORDED_ENDPOINT | QUANTITATIVE_READOUT |
| --- | --- | --- |
| CCCNC(=O)CSc1nc(-c2ccc(Cl)cc2)ns1 [Compound I-36] | Half-life | 43.2 |
| CCCNC(=O)CSc1nc(-c2ccccc2)ns1 [Compound I-1] | Half-life | 45.6 |
| O=C(COc1nc(-c2ccccc2)ns1)NC1CCCC1 [Compound I-33] | Half-life | 61.8 |
| CCCNC(=O)CSc1nc(-c2ccc(OC)cc2)ns1 [Compound I-3] | Half-life | 9 |
| O=C(CSc1nc(-c2ccccc2)ns1)NC1CCCC1 [Compound I-5] | Half-life | 70.8 |
| O=C(CSc1nc(-c2ccccc2)ns1)NCCC(F)(F)F [Compound I-35] | Half-life | 48.6 |

---

# EXPERIMENT: in vitro
# MEASUREMENT_CONDITIONS: human, microsomes, pH 7.4

| QUERY_SMILES | CLint scaled (mL/min/kg) |
| --- | --- |
| O=C(CSc1nc(-c2ccc(Cl)cc2)ns1)NCCC(F)(F)F | 18 |

---

# EXPERIMENT: in vitro
# MEASUREMENT_CONDITIONS: human, microsomes, pH 7.4
Here, each record is paired with measured CLint scaled at 15 μM data.

| QUERY_SMILES | CLint scaled at 15 μM, L/h/kg |
| --- | --- |
| O=C(CSc1nc(-c2ccccc2)ns1)NCCC(F)(F)F | 0.767 |
| O=C(COc1nc(-c2ccccc2)ns1)NC1CCCC1 | 0.604 |
| CCCNC(=O)CSc1nc(-c2ccccc2)ns1 | 0.817 |
| CCCNC(=O)CSc1nc(-c2ccc(OC)cc2)ns1 | 4.04 |
| O=C(CSc1nc(-c2ccccc2)ns1)NC1CCCC1 | 0.527 |
| CCCNC(=O)CSc1nc(-c2ccc(Cl)cc2)ns1 | 0.863 |
